Molecular target: recombinant human PAI-1 (Homo sapiens)
Assay: Test Example 1: human PAI-1 inhibitory activity (tPA fluorogenic substrate, pH7.5 Tris buffer)
Assay type: biochemical
Design: purchased Molecular Innovations, Inc
Conditions: compound 5 μM; Tris buffer pH7.5
reported-metric: Inhibition Rate of Human PAI-1 Activity (%)

The following compounds have reported results that may help.
- compound: "CC(C)(C)c1ccc(COc2ccc(-c3ccc(F)cc3)cc2CCC(=O)O)cc1 [Compound 39]"
  result-unit: "%"
  readout-value: 24
- compound: "COc1ccccc1-c1ccc(OCc2ccc(C(C)(C)C)cc2)c(CCC(=O)O)c1 [Compound 62]"
  result-unit: "%"
  readout-value: 22

A: CC(C)(C)c1ccc(COc2ccc(-c3ccccc3)cc2/C=C/C(=O)O)cc1 [Compound 36]
B: CCCCc1ccc(COc2ccc(-c3ccc(C(C)(C)C)cc3)cc2CCC(=O)O)cc1 [Compound 78]
Looking at A and B , which one comes out lower in Inhibition Rate of Human PAI-1 Activity (%) terms? Selection: enter the item's label.
A

----------
Molecular target: recombinant human PAI-1 (Homo sapiens, UniProt P05121)
Sequence (P05121 24-402): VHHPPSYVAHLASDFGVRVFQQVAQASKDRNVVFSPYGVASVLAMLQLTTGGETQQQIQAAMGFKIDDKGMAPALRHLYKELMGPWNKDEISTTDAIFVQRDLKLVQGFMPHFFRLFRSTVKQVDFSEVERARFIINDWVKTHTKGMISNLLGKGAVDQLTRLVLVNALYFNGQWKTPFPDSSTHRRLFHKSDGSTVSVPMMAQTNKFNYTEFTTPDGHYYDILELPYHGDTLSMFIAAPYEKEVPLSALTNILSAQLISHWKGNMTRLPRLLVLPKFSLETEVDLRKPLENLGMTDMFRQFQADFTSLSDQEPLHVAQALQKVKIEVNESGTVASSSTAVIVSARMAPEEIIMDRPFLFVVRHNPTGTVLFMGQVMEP
Assay: Test Example 1: human PAI-1 inhibitory activity (tPA fluorogenic substrate, pH7.5 Tris buffer)
Type: biochemical
Parameters: purchased Molecular Innovations, Inc
Settings: compound 25 μM; Tris buffer pH7.5
reported-metric: Inhibition Rate of Human PAI-1 Activity (%)

The following compounds have reported results that may help.
- cpd-smiles: "COc1ccccc1-c1ccc(OCc2ccc(C(C)(C)C)cc2)c(/C=C/C(=O)O)c1"
  result-unit: "%"
  readout-value: 95
- cpd-smiles: "COc1ccc(-c2ccc(OCc3ccc(C(C)(C)C)cc3)c(/C=C/C(=O)O)c2)cc1"
  result-unit: "%"
  readout-value: 84
- cpd-smiles: "CC(C)(C)c1ccc(-c2ccc(OCc3ccccc3)c(/C=C/C(=O)O)c2)cc1"
  result-unit: "%"
  readout-value: 91

I: CC(C)(C)c1ccc(-c2ccc(OCc3ccc(OC(F)(F)F)cc3)c(CCC(=O)O)c2)cc1
II: CC(C)(C)c1ccc(COc2ccc(-c3cccc(C(=O)O)c3)cc2CCC(=O)O)cc1
III: O=C(O)/C=C\c1cc(-c2ccc(OC(F)(F)F)cc2)ccc1OCc1ccccc1
// ranking: key=Inhibition Rate of Human PAI-1 Activity (%), reverse=True Give the labels in the order specified.
I, III, II
(I: 94%, III: 64%, II: 25%)

----------
Target: recombinant human PAI-1 (Homo sapiens)
Test: Test Example 1: human PAI-1 inhibitory activity (tPA fluorogenic substrate, pH7.5 Tris buffer)
Type: biochemical
Design: purchased Molecular Innovations, Inc
Settings: compound 5 μM; Tris buffer pH7.5
reported-metric: Inhibition Rate of Human PAI-1 Activity (%)

- cpd-smiles: "CCCCc1ccc(-c2ccc(OCc3ccc(C(C)(C)C)cc3)c(CCC(=O)O)c2)cc1"
  assay-target: "recombinant human PAI-1 (Homo sapiens)"
  result-unit: "%"
  readout-value: 29
- cpd-smiles: "CC(C)(C)c1ccc(COc2ccc(-c3ccc(C(C)(C)C)cc3)cc2CCC(=O)O)cc1"
  assay-target: "recombinant human PAI-1 (Homo sapiens)"
  result-unit: "%"
  readout-value: 22

P: CN(C(=O)C(=O)O)c1cc(-c2ccc(OC(F)(F)F)cc2)ccc1OCc1ccc(C(C)(C)C)cc1
Q: CC(C)(C)c1ccc(COc2ccc(-c3ccc(F)cc3)cc2/C=C/C(=O)O)cc1
Which is greater in Inhibition Rate of Human PAI-1 Activity (%), the first item P or the second item Q ? Selection: enter the item's label.
P
(P: 37%, Q: 23%)
